System: NCI-H1876 tumor spheroid viability
Test: Anticancer human tumor NCI-H1876 cell line growth inhibition
Conditions: second compound 0.03 µM; first compound 0.0316 µM; stronger effect = lower value; spheroids with HUVEC and MSC
Method: Multicellular complex tumor spheroid response to DNA repair inhibitors in combination with DNA-damaging drugs This study explores the anticancer activities of DNA-damaging drugs and inhibitors of DNA damage repair, both as single agents and in combinations. […] Twenty-six patient-derived or established malignant cell lines were evaluated representing sarcoma, melanoma, small cell lung cancer (SCLC), non-small cell lung cancer (NSCLC), as well as bladder, ovarian and pancreatic cancers. […]
Reported values of viability, T/C for individual entries
Answer with a number only, understood to be in %.

Solved entries:
COc1cc(C)[nH]c(=O)c1CN1CCc2c(Cl)cc(C(OC)C3COC3)c(Cl)c2C1=O (stereo not drawn) + CC[C@@]1(O)C(=O)OCc2c1cc1n(c2=O)Cc2cc3c(CN(C)C)c(O)ccc3nc2-1	3.49
COc1ccc([C@@H](O)c2cc(-c3ncnc4cc(N5CCOCC5)ccc34)c(F)cc2Cl)nn1 + CC[C@@]1(O)C(=O)OCc2c1cc1n(c2=O)Cc2cc3c(CN(C)C)c(O)ccc3nc2-1	3.61

Turning to the following compound.
Here Cc1cc(C)c(CNC(=O)c2cc(-c3ccc(CN4CCOCC4)cc3)cc3c2cnn3C2CCCC2)c(=O)[nH]1 + CC[C@@]1(O)C(=O)OCc2c1cc1n(c2=O)Cc2cc3c(CN(C)C)c(O)ccc3nc2-1 was tested on NCI-H1876 tumor spheroid viability, and its viability, T/C came to 15.6

---

Tested on: NCI-H1876 tumor spheroid viability
Assay: Anticancer human tumor NCI-H1876 cell line growth inhibition
Conditions: second compound 0.00949 µM; first compound 1 µM; stronger effect = lower value; spheroids with HUVEC and MSC
Listing: viability, T/C of selected compounds
Express your answer in %, writing the number without its unit.

Below: 2 compounds and their reported viability, T/C.
Cc1cc(C)c(CNC(=O)c2cc(-c3ccc(CN4CCOCC4)cc3)cc3c2cnn3C2CCCC2)c(=O)[nH]1 + CC[C@@]1(O)C(=O)OCc2c1cc1n(c2=O)Cc2cc3c(CN(C)C)c(O)ccc3nc2-1	26.2
CC1COCCN1c1cc(-c2ccnn2C)c2ccnc(-c3ccn[nH]3)c2n1 (stereo not drawn) + CC[C@@]1(O)C(=O)OCc2c1cc1n(c2=O)Cc2cc3c(CN(C)C)c(O)ccc3nc2-1	3.16

Next compound, viability, T/C to be filled in.
Known value: NCI-H1876 tumor spheroid viability viability, T/C of the compound COc1cc(C)[nH]c(=O)c1CN1CCc2c(Cl)cc(C(OC)C3COC3)c(Cl)c2C1=O (stereo not drawn) + CC[C@@]1(O)C(=O)OCc2c1cc1n(c2=O)Cc2cc3c(CN(C)C)c(O)ccc3nc2-1 equals 19.4

---

Test system: NCI-H1876 tumor spheroid viability
Assay: Anticancer human tumor NCI-H1876 cell line growth inhibition
Conditions: second compound 0.000949 µM; first compound 0.316 µM; stronger effect = lower value; spheroids with HUVEC and MSC
Protocol: Multicellular complex tumor spheroid response to DNA repair inhibitors in combination with DNA-damaging drugs This study explores the anticancer activities of DNA-damaging drugs and inhibitors of DNA damage repair, both as single agents and in combinations. […] Twenty-six patient-derived or established malignant cell lines were evaluated representing sarcoma, melanoma, small cell lung cancer (SCLC), non-small cell lung cancer (NSCLC), as well as bladder, ovarian and pancreatic cancers. […]
Lab note: compare viability, T/C with 2%, writing condition met if less and condition not met if equal or more.

COc1cc(C)[nH]c(=O)c1CN1CCc2c(Cl)cc(C(OC)C3COC3)c(Cl)c2C1=O (stereo unspecified) + COc1cc2c(cc1O)CCNC21CSC2c3c(OC(C)=O)c(C)c4c(c3C(COC1=O)N1C(O)C3Cc5cc(C)c(OC)c(O)c5C(C21)N3C)OCO4	condition not met
CC1COCCN1c1cc(-c2ccnn2C)c2ccnc(-c3ccn[nH]3)c2n1 (stereo unspecified) + COc1cc2c(cc1O)CCNC21CSC2c3c(OC(C)=O)c(C)c4c(c3C(COC1=O)N1C(O)C3Cc5cc(C)c(OC)c(O)c5C(C21)N3C)OCO4	condition met

Then there is this compound:
Ask: Please indicate whether the reported viability, T/C of COc1ccc([C@@H](O)c2cc(-c3ncnc4cc(N5CCOCC5)ccc34)c(F)cc2Cl)nn1 + COc1cc2c(cc1O)CCNC21CSC2c3c(OC(C)=O)c(C)c4c(c3C(COC1=O)N1C(O)C3Cc5cc(C)c(OC)c(O)c5C(C21)N3C)OCO4 is strictly below 2%.
Result: condition not met

---

Tested on: NCI-H1876 tumor spheroid viability
Assay: Anticancer human tumor NCI-H1876 cell line growth inhibition;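 further: spheroids exposed to compounds for seven days before the viability read; percent of DMSO vehicle control viability so 100% = vehicle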
Settings: second compound 10 µM; first compound 3.16 µM; stronger effect = lower value; spheroids with HUVEC and MSC
Reported viability, T/C values for the following compounds.

Below, 5 compounds whose answers are already recorded.
Cc1cc(C)c(CNC(=O)c2cc(-c3ccc(CN4CCOCC4)cc3)cc3c2cnn3C2CCCC2)c(=O)[nH]1 + Cn1nnc2c(C(N)=O)ncn2c1=O	26.6%
CC1COCCN1c1cc(-c2ccnn2C)c2ccnc(-c3ccn[nH]3)c2n1 (stereo unspecified) + Cn1nnc2c(C(N)=O)ncn2c1=O	11%
COc1ccc([C@@H](O)c2cc(-c3ncnc4cc(N5CCOCC5)ccc34)c(F)cc2Cl)nn1 + Cn1nnc2c(C(N)=O)ncn2c1=O	23.5%
COc1cc(C)[nH]c(=O)c1CN1CCc2c(Cl)cc(C(OC)C3COC3)c(Cl)c2C1=O (stereo unspecified) + Cn1nnc2c(C(N)=O)ncn2c1=O	95%
CC(C)n1c(=O)n(C)c2cnc3cc(F)c(-c4ccc(OCCCN5CCCCC5)nc4)cc3c21 + Cn1nnc2c(C(N)=O)ncn2c1=O	36.1%

Now consider a different compound.
Note to self: viability, T/C recorded for [2H]c1nc(C)nc([2H])c1-c1cc(NC[C@@H](C)c2cccc3c(C(=O)NC)ccnc23)ncn1 + Cn1nnc2c(C(N)=O)ncn2c1=O was 89.3%

---

Tested on: NCI-H1876 tumor spheroid viability
Experiment: Anticancer human tumor NCI-H1876 cell line growth inhibition;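 further: spheroids exposed to compounds for seven days before the viability read; percent of DMSO vehicle control viability so 100% = vehicle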
Settings: second compound 0.0003 µM; first compound 1 µM; stronger effect = lower value; spheroids with HUVEC and MSC
Reported values of viability, T/C for individual entries

Cc1cc(C)c(CNC(=O)c2cc(-c3ccc(CN4CCOCC4)cc3)cc3c2cnn3C2CCCC2)c(=O)[nH]1 + COc1cc2c(cc1O)CCNC21CSC2c3c(OC(C)=O)c(C)c4c(c3C(COC1=O)N1C(O)C3Cc5cc(C)c(OC)c(O)c5C(C21)N3C)OCO4	27.2%

viability, T/C for COc1cc(C)[nH]c(=O)c1CN1CCc2c(Cl)cc(C(OC)C3COC3)c(Cl)c2C1=O (configuration not stated) + COc1cc2c(cc1O)CCNC21CSC2c3c(OC(C)=O)c(C)c4c(c3C(COC1=O)N1C(O)C3Cc5cc(C)c(OC)c(O)c5C(C21)N3C)OCO4 is 20.5%

---

Test system: NCI-H1876 tumor spheroid viability
Experiment: Anticancer human tumor NCI-H1876 cell line growth inhibition;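 further: spheroids exposed to compounds for seven days before the viability read; percent of DMSO vehicle control viability so 100% = vehicle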
Conditions: second compound 94.9 pM; first compound 0.0949 µM; stronger effect = lower value; spheroids with HUVEC and MSC
READOUT_TYPE: viability, T/C (%)
Answer format: numeric, % implied, no suffix.

Illustrative cases are given below, each with its answer.
CNCc1ccc(-c2cc(-c3nc(-c4ccc(S(=O)(=O)C(C)C)cc4)cnc3N)on2)cc1 + COc1cc2c(cc1O)CCNC21CSC2c3c(OC(C)=O)c(C)c4c(c3C(COC1=O)N1C(O)C3Cc5cc(C)c(OC)c(O)c5C(C21)N3C)OCO4	70.5
Cc1sc2c(c1C)C(c1ccc(Cl)cc1)=NC(CC(=O)Nc1ccc(O)cc1)c1nnc(C)n1-2 (centres undefined) + COc1cc2c(cc1O)CCNC21CSC2c3c(OC(C)=O)c(C)c4c(c3C(COC1=O)N1C(O)C3Cc5cc(C)c(OC)c(O)c5C(C21)N3C)OCO4	60.6
Cn1ncnc1[C@H]1c2n[nH]c(=O)c3cc(F)cc(c23)N[C@@H]1c1ccc(F)cc1 + COc1cc2c(cc1O)CCNC21CSC2c3c(OC(C)=O)c(C)c4c(c3C(COC1=O)N1C(O)C3Cc5cc(C)c(OC)c(O)c5C(C21)N3C)OCO4	15.5

Consider the additional molecule presented here.
Summary for this molecule, O=C(c1cc(Cc2n[nH]c(=O)c3ccccc23)ccc1F)N1CCN(C(=O)C2CC2)CC1 + COc1cc2c(cc1O)CCNC21CSC2c3c(OC(C)=O)c(C)c4c(c3C(COC1=O)N1C(O)C3Cc5cc(C)c(OC)c(O)c5C(C21)N3C)OCO4 : viability, T/C is 85.8

---

System: NCI-H1876 tumor spheroid viability
Assay: Anticancer human tumor NCI-H1876 cell line growth inhibition; active means viability on the fitted dose curve at most 10% of control; inactive means the rest;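 further: spheroids exposed to compounds for seven days before the viability read; percent of DMSO vehicle control viability so 100% = vehicle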
Settings: second compound 3.16 µM; first compound 10 µM; spheroids with HUVEC and MSC
Choose one outcome from this list and give only that: Y (active), N (inactive)

Observe how each entry below is paired with its result.
COc1ccc([C@@H](O)c2cc(-c3ncnc4cc(N5CCOCC5)ccc34)c(F)cc2Cl)nn1 + Cn1nnc2c(C(N)=O)ncn2c1=O	Y
CC1COCCN1c1cc(-c2ccnn2C)c2ccnc(-c3ccn[nH]3)c2n1 (stereo unspecified) + Cn1nnc2c(C(N)=O)ncn2c1=O	Y
Cc1cc(C)c(CNC(=O)c2cc(-c3ccc(CN4CCOCC4)cc3)cc3c2cnn3C2CCCC2)c(=O)[nH]1 + Cn1nnc2c(C(N)=O)ncn2c1=O	N
COc1cc(C)[nH]c(=O)c1CN1CCc2c(Cl)cc(C(OC)C3COC3)c(Cl)c2C1=O (stereo unspecified) + Cn1nnc2c(C(N)=O)ncn2c1=O	N
[2H]c1nc(C)nc([2H])c1-c1cc(NC[C@@H](C)c2cccc3c(C(=O)NC)ccnc23)ncn1 + Cn1nnc2c(C(N)=O)ncn2c1=O	N

Now turn to the next compound.
Ask: State the result this test recorded for CC(C)n1c(=O)n(C)c2cnc3cc(F)c(-c4ccc(OCCCN5CCCCC5)nc4)cc3c21 + Cn1nnc2c(C(N)=O)ncn2c1=O .
Result: N
